Source of measurements: the supplement of paper PMC7877785

assay: self-splicing fitness, log relative to wild type (ln ratio); higher = more splicing; Tetrahymena group I intron in knt gene, E. coli kanamycin selection, DiMSum; sequences stand for … in CUCUCU…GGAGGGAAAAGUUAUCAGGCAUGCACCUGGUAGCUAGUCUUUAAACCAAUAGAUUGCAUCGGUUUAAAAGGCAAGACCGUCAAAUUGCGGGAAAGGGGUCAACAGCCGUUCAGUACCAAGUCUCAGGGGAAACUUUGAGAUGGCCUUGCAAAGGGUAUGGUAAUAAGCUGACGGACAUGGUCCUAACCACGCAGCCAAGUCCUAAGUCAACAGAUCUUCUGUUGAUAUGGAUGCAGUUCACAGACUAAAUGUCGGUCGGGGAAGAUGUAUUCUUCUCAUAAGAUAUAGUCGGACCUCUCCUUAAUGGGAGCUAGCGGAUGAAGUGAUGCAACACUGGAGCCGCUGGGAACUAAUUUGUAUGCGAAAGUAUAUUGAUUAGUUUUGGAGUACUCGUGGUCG; conditions: 30 °C;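 note: selection with 25 µg/mL kanamycin versus none on LB agar overnight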
Known self-splicing fitness (ln) of a selection of sequences
# output: bare number, no unit

# MACROMOLECULE_SEQUENCE, DATA_VALUE
data = [
    ("CCUUAGCAAUAUUACGCGCG", -2.71),
]

## Input Quick check: self-splicing fitness (ln) of GCCCAGCAAUAUUACGUGUC ?
## Output -0.887

## Input Quick check: self-splicing fitness (ln) of AUCCAGCAAUAUUACGAUCC ?
## Output -1.43

## Input Quick check: self-splicing fitness (ln) of CGCUAGCAAUAUUACGGAUU ?
## Output -3

## Input Quick check: self-splicing fitness (ln) of GAAGAGCAAUAUUACGUGUG ?
## Output -3.15

## Input Quick check: self-splicing fitness (ln) of CCACAGCAAUAUUACGUUGG ?
## Output -3.83

## Input Quick check: self-splicing fitness (ln) of GUUUAGCAAUAUUACGGUGA ?
## Output -1.84

## Input Quick check: self-splicing fitness (ln) of AGAGAGCAAUAUUACGAAUC ?
## Output -3.68

## Input Quick check: self-splicing fitness (ln) of CAAGAGCAAUAUUACGCAAU ?
## Output -3.31

## Input Quick check: self-splicing fitness (ln) of CCGAAGCAAUAUUACGAGCA ?
## Output -2.35

## Input Quick check: self-splicing fitness (ln) of AUGAAGCAAUAUUACGACGG ?
## Output -0.0267

## Input Quick check: self-splicing fitness (ln) of CACCAGCAAUAUUACGAUAG ?
## Output -0.377

## Input Quick check: self-splicing fitness (ln) of GCAUAGCAAUAUUACGUGUG ?
## Output -3.17

## Input Quick check: self-splicing fitness (ln) of GGCCAGCAAUAUUACGAGAU ?
## Output -2.68

----------
assay: self-splicing fitness, log relative to wild type (ln ratio); higher = more splicing; Tetrahymena group I intron in knt gene, E. coli kanamycin selection, DiMSum; sequences stand for … in CUCUCU…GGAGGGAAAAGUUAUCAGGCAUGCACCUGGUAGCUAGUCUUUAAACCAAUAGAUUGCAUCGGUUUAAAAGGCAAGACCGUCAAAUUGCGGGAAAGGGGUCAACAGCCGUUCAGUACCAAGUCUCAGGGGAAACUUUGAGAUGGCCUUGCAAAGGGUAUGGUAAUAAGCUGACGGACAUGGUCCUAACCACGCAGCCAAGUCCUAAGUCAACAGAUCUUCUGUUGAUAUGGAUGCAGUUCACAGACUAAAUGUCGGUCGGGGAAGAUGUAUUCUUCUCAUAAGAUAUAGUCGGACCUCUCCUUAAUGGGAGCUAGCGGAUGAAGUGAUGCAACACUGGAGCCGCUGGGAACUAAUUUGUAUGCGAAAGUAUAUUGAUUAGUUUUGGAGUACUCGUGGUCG; conditions: 37 °C
Known self-splicing fitness (ln) of a selection of sequences
# output: bare number, no unit

Known self-splicing fitness (ln) results, listed for orientation:
# MACROMOLECULE_SEQUENCE, MEASURED_PROPERTY, DATA_VALUE
measured = [
    ("UGCCAGCAAUAUUACGCUAA", "self-splicing fitness (ln)", 0.0253),
    ("CUGUAGCAAUAUUACGUAGC", "self-splicing fitness (ln)", -2.93),
    ("UCGGAGCAAUAUUACGGUCC", "self-splicing fitness (ln)", -1.73),
    ("UACCAGCAAUAUUACGACGA", "self-splicing fitness (ln)", 0.837),
]

Next, consider the following sequence.
## Input Quick check: self-splicing fitness (ln) of UAGCAGCAAUAUUACGGUUC ?
## Output -1.89

----------
test: self-splicing fitness, log relative to wild type (ln ratio); higher = more splicing; Tetrahymena group I intron in knt gene, E. coli kanamycin selection, DiMSum; sequences stand for … in CUCUCU…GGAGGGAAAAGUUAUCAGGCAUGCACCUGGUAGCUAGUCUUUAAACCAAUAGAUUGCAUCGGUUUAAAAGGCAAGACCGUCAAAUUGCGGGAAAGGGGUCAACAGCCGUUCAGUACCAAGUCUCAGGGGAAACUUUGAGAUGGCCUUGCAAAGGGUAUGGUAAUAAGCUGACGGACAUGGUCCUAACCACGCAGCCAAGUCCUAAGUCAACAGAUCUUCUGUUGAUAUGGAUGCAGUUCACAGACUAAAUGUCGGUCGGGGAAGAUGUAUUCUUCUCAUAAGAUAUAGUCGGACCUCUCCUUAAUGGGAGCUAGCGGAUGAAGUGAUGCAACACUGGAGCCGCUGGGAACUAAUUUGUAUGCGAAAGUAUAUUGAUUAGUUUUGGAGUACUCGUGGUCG; details: 37 °C
MEASURED_PROPERTY: self-splicing fitness (ln)
# output: bare number, no unit

Known self-splicing fitness (ln) results, listed for orientation:
# MACROMOLECULE_SEQUENCE, DATA_VALUE
rows = [
    ("AUUAAGCAAUAUUACGAGCC", -1.69),
    ("GUAAAGCAAUAUUACGACAC", 0.696),
    ("UUUAAGCAAUAUUACGCGCA", 0.0171),
    ("UGCGAGCAAUAUUACGCCGU", -2.54),
    ("AAAAAGCAAUAUUACGGUUU", -0.225),
    ("UUGAAGCAAUAUUACGUCAA", 0.078),
    ("GUCAAGCAAUAUUACGGGUC", -2.16),
    ("GUGAAGCAAUAUUACGUUAC", -1.52),
]

## Input Quick check: self-splicing fitness (ln) of CUGGAGCAAUAUUACGCAGC ?
## Output -0.0349

----------
assay: self-splicing fitness, log relative to wild type (ln ratio); higher = more splicing; Tetrahymena group I intron in knt gene, E. coli kanamycin selection, DiMSum; sequences stand for … in CUCUCU…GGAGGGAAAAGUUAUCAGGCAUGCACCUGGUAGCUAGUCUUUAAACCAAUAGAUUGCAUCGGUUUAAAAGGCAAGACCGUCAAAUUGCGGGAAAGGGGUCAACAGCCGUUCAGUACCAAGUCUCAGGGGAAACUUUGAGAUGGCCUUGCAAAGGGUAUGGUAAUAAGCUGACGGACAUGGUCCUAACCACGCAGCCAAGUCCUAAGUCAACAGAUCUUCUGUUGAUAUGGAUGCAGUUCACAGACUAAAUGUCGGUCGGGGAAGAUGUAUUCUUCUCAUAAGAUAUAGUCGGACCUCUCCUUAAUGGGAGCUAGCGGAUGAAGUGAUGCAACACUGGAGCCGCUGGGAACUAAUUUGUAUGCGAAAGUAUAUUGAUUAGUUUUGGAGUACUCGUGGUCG; details: 30 °C
Known self-splicing fitness (ln) of a selection of sequences
# output: bare number, no unit

Known self-splicing fitness (ln) results, listed for orientation:
# MACROMOLECULE_SEQUENCE, DATA_VALUE
data = [
    ("GCCAAGCAAUAUUACGGCAU", -3.55),
    ("CGACAGCAAUAUUACGAUCG", -3.43),
    ("AACAAGCAAUAUUACGUGCC", -0.971),
    ("UGCUAGCAAUAUUACGUGAG", -3.51),
    ("UAGCAGCAAUAUUACGGAGG", -3.29),
    ("GCUUAGCAAUAUUACGCUGA", -2.77),
    ("AACUAGCAAUAUUACGUUGC", -3.47),
    ("AAGUAGCAAUAUUACGGGUC", -3.44),
    ("UGGCAGCAAUAUUACGACUU", 0.0485),
    ("CCCAAGCAAUAUUACGAGGG", -4.18),
]

## Input Quick check: self-splicing fitness (ln) of AACAAGCAAUAUUACGUACG ?
## Output -1.65

## Input Quick check: self-splicing fitness (ln) of UGGCAGCAAUAUUACGGAUU ?
## Output -3.95

## Input Quick check: self-splicing fitness (ln) of UGUAAGCAAUAUUACGUACC ?
## Output -1.07

## Input Quick check: self-splicing fitness (ln) of AUGUAGCAAUAUUACGAACA ?
## Output -0.529

## Input Quick check: self-splicing fitness (ln) of ACAUAGCAAUAUUACGGUGA ?
## Output -0.929
